Tested on: Staphylococcus aureus
assayMethodText: Induction of cellular content release in methicillin-resistant Staphylococcus aureus assessed as DNA content by measuring optical density at 260 nm at MIC after 240 mins by UV-visible spectrophotometric analysis
Type: functional
readout: OD
Answers are plain numbers.

O=S(=O)(F)/C=C/c1ccc(Cl)cc1    1.28
O=S(=O)(F)/C=C/c1cc(Cl)cc(Cl)c1    1.34
N#Cc1ccc(/C=C/S(=O)(=O)F)cc1    1.42
O=S(=O)(F)/C=C/c1cccc(O)c1    1.52

**Query** Using the record for CS(=O)(=O)c1cccc(/C=C/S(=O)(=O)F)c1 , report its OD.
**Result** 1.86

* * *

Tested on: Staphylococcus aureus
assayMethodText: Induction of cellular content release in methicillin-resistant Staphylococcus aureus assessed as DNA content by measuring optical density at 260 nm at MIC after 240 mins by UV-visible spectrophotometric analysis
Assay type: functional
I'd be grateful if you could share measured OD for these entries.
Answers are plain numbers.

Study these solved cases before continuing.
Cc1ccc(/C=C/S(=O)(=O)F)cc1    1.48
Cc1cc(/C=C/S(=O)(=O)F)ccc1Br    1.61
O=S(=O)(F)/C=C/c1ccc(C(F)(F)F)nc1    1.67
CC(C)S(=O)(=O)c1ccc(/C=C/S(=O)(=O)F)cc1    1.78
COc1cccc(/C=C/S(=O)(=O)F)c1    1.56
O=S(=O)(F)/C=C/c1cc(Cl)nc(Cl)c1    1.85
O=[N+]([O-])c1ccc(/C=C/S(=O)(=O)F)cc1    1.35
O=S(=O)(F)/C=C/c1ccccc1Br    1.58

# return OD for each item in the list
1. CS(=O)(=O)c1ccc(/C=C/S(=O)(=O)F)cc1
2. CC(=O)c1cccc(/C=C/S(=O)(=O)F)c1
3. O=S(=O)(F)/C=C/c1cccc2ccccc12
4. O=[N+]([O-])c1cccc(/C=C/S(=O)(=O)F)c1
5. Cc1cc(C)cc(/C=C/S(=O)(=O)F)c1

**Result**
1: 1.45; 2: 1.28; 3: 1.48; 4: 1.45; 5: 1.37

* * *

Test system: Staphylococcus epidermidis
assayMethodText: Antibacterial activity against methicillin-resistant Staphylococcus epidermidis assessed as zone of inhibition at 400 ng/mL after 24 hrs by agar disc diffusion method
Assay type: functional
conditionsUsed: read-out: IZ
readout: zone of inhibition at 0.4 µg/mL (mm)
Numbers only, in mm.

Completed entries (count: 3):
O=S(=O)(F)/C=C/c1ccccc1    4.2
O=S(=O)(F)/C=C/c1ccc(Br)cc1    6.2
O=S(=O)(F)/C=C/c1cc(O)cc(O)c1    4.2

Please state, for each entry, its recorded zone of inhibition at 0.4 µg/mL.
1. CC(=O)c1ccccc1/C=C/S(=O)(=O)F
2. O=S(=O)(F)/C=C/c1ccc(C(F)(F)F)cc1

**Result**
1: 4.2; 2: 10.1

Please report zone of inhibition at 0.4 µg/mL for every entry that follows.
1. CCOC(=O)/C=C/C=C/S(=O)(=O)F
2. Cc1cc(C)cc(/C=C/S(=O)(=O)F)c1
3. O=S(=O)(F)/C=C/c1ccc(OC(F)(F)F)cc1

**Result**
1: 4.1; 2: 5.2; 3: 8.3

* * *

Kindly supply the reported zone of inhibition at 0.4 µg/mL values for the records listed here.
System: Staphylococcus epidermidis
assayMethodText: Antibacterial activity against methicillin-resistant Staphylococcus epidermidis assessed as zone of inhibition at 400 ng/mL after 24 hrs by agar disc diffusion method
Type: functional
conditionsUsed: read-out: IZ
Answers are plain numbers, in mm.

Use the examples below as a reference point.
O=S(=O)(F)/C=C/C=C/c1cccc(F)c1    6.1
O=S(=O)(F)/C=C/c1ccccc1Br    11.5
O=S(=O)(F)/C=C/c1ccc(Cl)cc1    7.2
O=[N+]([O-])c1cccc(/C=C/S(=O)(=O)F)c1    6.2

Answer for every listed entry: what is its zone of inhibition at 0.4 µg/mL? The entries follow.
1. CC(C)c1cccc(/C=C/S(=O)(=O)F)c1
2. O=S(=O)(F)/C=C/c1ccc(C(F)(F)F)nc1
3. Cc1ccccc1/C=C/S(=O)(=O)F

**Result**
[12.2, 5.1, 3.4]

* * *

Please go through the items and note down their zone of inhibition at 0.8 µg/mL.
Tested on: Staphylococcus epidermidis
assayMethodText: Antibacterial activity against methicillin-resistant Staphylococcus epidermidis assessed as zone of inhibition at 800 ng/mL after 24 hrs by agar disc diffusion method
Format: functional
conditionsUsed: read-out: IZ
Please make sure the unit comes right after the number.

CC(C)c1cccc(/C=C/S(=O)(=O)F)c1    15.1 mm
O=S(=O)(F)/C=C/c1ccc(Cl)cc1    8.4 mm
O=S(=O)(F)/C=C/c1ccc(OC(F)(F)F)cc1    10.4 mm

// for each molecule below, give its zone of inhibition at 0.8 µg/mL
1. O=S(=O)(F)/C=C/c1cccc(I)c1
2. O=S(=O)(F)/C=C/c1cccc(O)c1
3. COc1ccccc1/C=C/S(=O)(=O)F
4. CC(=O)c1ccccc1/C=C/S(=O)(=O)F

**Result**
["8.1 mm", "7.4 mm", "8.4 mm", "10.5 mm"]

Okay, here is my list. What is zone of inhibition at 0.8 µg/mL for each of these?
1. O=S(=O)(F)/C=C/c1ccc(C(F)(F)F)cc1
2. O=S(=O)(F)/C=C/c1ccc(C(F)(F)F)nc1
3. O=S(=O)(F)/C=C/c1ccc(Br)cc1
4. O=S(=O)(F)/C=C/c1cc(O)cc(O)c1
5. O=S(=O)(F)/C=C/C=C/c1cccc(F)c1
6. O=[N+]([O-])c1cccc(/C=C/S(=O)(=O)F)c1

**Result**
1: 11.4 mm; 2: 7.2 mm; 3: 7.5 mm; 4: 6.2 mm; 5: 8.3 mm; 6: 7.2 mm

* * *

Tested on: Staphylococcus epidermidis
assayMethodText: Antibacterial activity against methicillin-resistant Staphylococcus epidermidis assessed as zone of inhibition at 800 ng/mL after 24 hrs by agar disc diffusion method
Format: functional
conditionsUsed: read-out: IZ
Provide the recorded zone of inhibition at 0.8 µg/mL for the entries that follow.

O=S(=O)(F)/C=C/c1cc(Cl)nc(Cl)c1    7.2 mm
CCOC(=O)/C=C/C=C/S(=O)(=O)F    3.1 mm
O=S(=O)(F)/C=C/c1ccccc1    5.5 mm

Quick one: give me zone of inhibition at 0.8 µg/mL for each item below, same order please.
1. Cc1ccccc1/C=C/S(=O)(=O)F
2. O=S(=O)(F)/C=C/C=C/c1cccc(C(F)(F)F)c1
3. O=S(=O)(F)/C=C/c1ccccc1Br
4. N#Cc1ccc(/C=C/S(=O)(=O)F)cc1
5. Cc1cc(C)cc(/C=C/S(=O)(=O)F)c1

**Result**
["4.5 mm", "8.5 mm", "14.2 mm", "7.6 mm", "9.8 mm"]

**Query** // fetch Staphylococcus epidermidis zone of inhibition at 0.8 µg/mL for Cc1ccc(/C=C/S(=O)(=O)F)c(C)c1
**Result** 11.1 mm

* * *

Tested on: Staphylococcus epidermidis
assayMethodText: Antibacterial activity against methicillin-resistant Staphylococcus epidermidis assessed as zone of inhibition at 400 ng/mL after 24 hrs by agar disc diffusion method
Type: functional
conditionsUsed: read-out: IZ
readout: zone of inhibition at 0.4 µg/mL (mm)
Answers are plain numbers, in mm.

Worked examples follow.
N#Cc1ccc(/C=C/S(=O)(=O)F)cc1    6.3
COc1ccccc1/C=C/S(=O)(=O)F    7.2

Hey, can you go through the list below and give me zone of inhibition at 0.4 µg/mL for every item?
1. O=S(=O)(F)/C=C/C=C/c1cccc(C(F)(F)F)c1
2. O=S(=O)(F)/C=C/c1cccc(I)c1
3. Cc1ccc(/C=C/S(=O)(=O)F)c(C)c1
4. O=S(=O)(F)/C=C/c1cccc(O)c1

**Result**
7.1
7.1
6.2
5.3

**Query** State its zone of inhibition at 0.4 µg/mL on Staphylococcus epidermidis: O=S(=O)(F)/C=C/c1cc(Cl)nc(Cl)c1
**Result** 6.3
